- System: CEM cells HIV-1 protection, formazan growth assay
- Test summary: NCI AIDS Antiviral Assay;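 active = compounds giving half or more protection of infected cells from virus-caused growth loss, again on retest; inactive = the rest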
Possible outcomes: active, inactive

In [3]: df
Out[3]:
                                    compound                              assay_system  assigned_category
 0  C[C@]1(O)CC[C@H]2[C@@H]3CCC4=CC(=O)CC[C@]4(C)[C@@]3(Cl)[C@@H](Cl)C[C@@]21C  CEM cells HIV-1 protection, formazan growth assay           inactive
 1  CCCCCCC(O)CCCCCCCCCCC(=O)OCC(COC(=O)CCCCCCCCCCC(O)CCCCCC)OC(=O)CCCCCCCCCCC(O)CCCCCC (stereo not drawn)  CEM cells HIV-1 protection, formazan growth assay           inactive
 2            O=C1/C(=C/c2ccccc2F)Cc2ccccc21  CEM cells HIV-1 protection, formazan growth assay           inactive
 3          Cc1cc(N=Nc2c(C)ccc3ncccc23)ccc1N  CEM cells HIV-1 protection, formazan growth assay           inactive
 4  CCOC(=O)c1c(C(F)(F)F)c2cc(C(=O)C(F)(F)F)c3ccccc3c2n1C  CEM cells HIV-1 protection, formazan growth assay           inactive
 5  CCOC(=O)/C(O)=C(/C=N\C(=S)Nc1ccccc1Cl)C(=O)OCC  CEM cells HIV-1 protection, formazan growth assay           inactive
 6                 COC(=O)c1ncn(C2CCCCC2)c1N  CEM cells HIV-1 protection, formazan growth assay           inactive
 7  CC(=O)/C(C=Nc1c(C)n(C)n(-c2ccccc2)c1=O)=C(/C)O  CEM cells HIV-1 protection, formazan growth assay           inactive
 8  Cc1cc(NS(=O)(=O)c2ccc(Nc3c4ccccc4nc4c(C(=O)O)cccc34)cc2)no1  CEM cells HIV-1 protection, formazan growth assay           inactive
 9          N#Cc1c(Cl)nc2ccccc2c1N=[N+]=[N-]  CEM cells HIV-1 protection, formazan growth assay           inactive
10  O=S1(=O)/C(=C\C2CCCCC2)c2c1c(-c1ccccc1)c1ccccc1c2-c1ccccc1  CEM cells HIV-1 protection, formazan growth assay           inactive
11  CCOP(=O)(CN1CCNCCN(CP(=O)(OCC)OCC)CC1)OCC  CEM cells HIV-1 protection, formazan growth assay           inactive
12                      NC(=O)c1ccc(NC=O)cc1  CEM cells HIV-1 protection, formazan growth assay           inactive
13                 CN(C)C(=O)/N=N/C(=O)N(C)C  CEM cells HIV-1 protection, formazan growth assay             active
14  CC1=C(C(=O)NC(C)(C)C)CC(C(=O)NC(C)(C)C)C(C)N1 (stereo not drawn)  CEM cells HIV-1 protection, formazan growth assay           inactive
15      COC(=O)Nc1cn2ccc(C(Cl)=C(Cl)Cl)cc2n1  CEM cells HIV-1 protection, formazan growth assay           inactive
16  CN1CCC(SC2Cc3cc(Cl)ccc3Sc3ccccc32)CC1 (stereo not drawn)  CEM cells HIV-1 protection, formazan growth assay           inactive
17  O=C(O)C(SSC(C(=O)O)(c1ccccc1)c1ccccc1)(c1ccccc1)c1ccccc1  CEM cells HIV-1 protection, formazan growth assay           inactive
18  NC(C(=O)O)C(CC(=O)O)c1ccccc1 (stereo not drawn)  CEM cells HIV-1 protection, formazan growth assay           inactive
19       O=C(Nc1ccc(-c2ccccn2)oc1=O)c1ccccc1  CEM cells HIV-1 protection, formazan growth assay           inactive
20      C=CCn1c(=O)c(-c2ccccc2)c(O)c2ccccc21  CEM cells HIV-1 protection, formazan growth assay           inactive
21  O=C1c2cccn2-c2ccccc2OC1c1ccc(NC(=S)Nc2ccc(Cl)cn2)cc1 (stereo not drawn)  CEM cells HIV-1 protection, formazan growth assay           inactive
22  COc1ccc(C(=O)/C=C/c2ccc(OCC(=N)N)cc2)cc1  CEM cells HIV-1 protection, formazan growth assay           inactive
